B1: LPCAT4 (parent)
chain: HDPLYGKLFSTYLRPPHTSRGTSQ

Variants of: B1
Test: protein stability index of a GFP-peptide fusion (GPS, HEK-293T) (PSI 1-6); higher = more stable;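 also: lentivirally expressed fusions sorted by FACS into six bins by GFP to DsRed ratio, PSI derived from sequencing read proportions per bin multiplied by bin number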
Settings: c terminus: a fixed tail appended
Given measured protein stability index, output t if it is greater than or equal to 3 and f if not.

• P3N = f
• D2R = f
• S23G = f
• F9R = t
• R20C = f
• H17R = f
• D2L = f
• L4T = f
• R20I = f
• H1D = t
• L8S = t
• R14Q = f
• P3Y = f
• Y5T = t
• R20N = f
• F9S = t
• L4N = f
• S19H = f
• P3F = f
• R20F = f
